molecular target: PARP-1 F1+F2 (24-kDa DBD) (Homo sapiens, UniProt P09874 1-214); assay: fluorescence anisotropy; 0 mM NaCl; tight site (KD1); FA: 50 mM Tris-HCl pH 7, 150 uM ZnSO4, 4 mM DTT, 0-200 mM NaCl, 25 C, 10 nM DNA (mutants 25 nM DNA, 25 mM NaCl); EMSA: 50 mM Tris-HCl pH 7.4, 150 uM ZnSO4, 4 mM DTT, 10% glycerol, RT incubation, gel at 4 C; NMR complexes: 50 mM Tris pH 7.0, 150 uM ZnSO4, 4 mM DTT, 37 C; conditions: protein: recombinant; label: fluorescein-dT at T8; single-chain dumbbell, 18 bp with central nick, two tetraloops
Sequence (P09874 1-214): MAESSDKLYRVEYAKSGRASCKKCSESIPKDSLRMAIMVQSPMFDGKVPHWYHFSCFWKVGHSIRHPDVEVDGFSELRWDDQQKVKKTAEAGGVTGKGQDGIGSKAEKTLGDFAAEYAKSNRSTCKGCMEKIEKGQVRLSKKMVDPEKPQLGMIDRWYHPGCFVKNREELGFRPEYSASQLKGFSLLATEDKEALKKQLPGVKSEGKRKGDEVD
pKd: −log10 of the molar value.

Binder	pKd
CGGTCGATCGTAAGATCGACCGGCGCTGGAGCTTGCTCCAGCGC (structured_DNA, 5'-phosphate) [44-nt nicked dumbbell, 5'-phosphate, fluorescein-dT]	8.24
